pKi values for Prostaglandin E2 receptor EP2 subtype (Homo sapiens) compiled from several publications are listed below.
pKi: −log10 of the molar value.
The threshold is inclusive: pKi of exactly 7 counts as T; values below receive F.

Worked examples follow.
• CCCCC(O)CCCN1CCC(=O)N1CCc1ccc(C(=O)O)cc1 (centres unmarked) = F
• Cc1ccc(-c2cccc(CO)c2)nc1C(=O)Nc1c(C)ccc(C(=O)O)c1C = F

Textbook exercise: given the entry COc1ccc(OC)c(CC2CCCCC2C(=O)NCc2ccc(C(=O)O)cc2)c1 (single isomer, unassigned) , state whether its pKi is greater than or equal to 7.
F

Textbook exercise: given the entry O=C(O)c1ccc(CCC[C@@H]2[C@@H](C#Cc3cccnc3)[C@H](O)C[C@H]2Cl)s1 , state whether its pKi is greater than or equal to 7.
T

Textbook exercise: given the entry O=C(O)c1ccc(CC[C@H]2C(=O)CC[C@@H]2/C=C/C(O)Cc2ccc(F)cc2)cc1 (single isomer, unassigned) , state whether its pKi is greater than or equal to 7.
F

Textbook exercise: given the entry CC(c1ccccc1)C(O)CCN1CCC(=O)N1CCc1ccc(C(=O)O)cc1 (stereo in doubt) , state whether its pKi is greater than or equal to 7.
F

Textbook exercise: given the entry O=C(O)c1ccc(CCC[C@@H]2[C@@H](CSc3cc(F)cc(F)c3)[C@H](O)C[C@H]2Cl)s1 , state whether its pKi is greater than or equal to 7.
T

Textbook exercise: given the entry O=C(O)c1csc(SCC[C@@H]2[C@@H](/C=C/c3cc(Cl)cc(Cl)c3)[C@H](O)C[C@H]2Cl)n1 , state whether its pKi is greater than or equal to 7.
T

Textbook exercise: given the entry CCCCCCc1ccc2c(C(=O)NCCc3ccc(C(=O)O)s3)cccc2c1 , state whether its pKi is greater than or equal to 7.
F

Textbook exercise: given the entry CCCCCC(O)c1ccc(N2C(=O)CC[C@@H]2C/C=C/c2nc(C(=O)O)cs2)cc1 (some centres unmarked) , state whether its pKi is greater than or equal to 7.
F

Textbook exercise: given the entry CCCC=C[C@@H]1[C@@H](CCCc2ccc(C(=O)O)s2)[C@H](Cl)C[C@H]1O , state whether its pKi is greater than or equal to 7.
T

Textbook exercise: given the entry CCc1cccc(C#C[C@@H]2[C@@H](CCCc3ccc(C(=O)O)s3)[C@H](Cl)C[C@H]2O)c1 , state whether its pKi is greater than or equal to 7.
T

Textbook exercise: given the entry CCCCC[C@H](O)CCN1C(=O)CC[C@@H]1COCc1ccc(C(=O)O)s1 , state whether its pKi is greater than or equal to 7.
F
